Would you kindly list Purity % Initial for each of these molecules?
protocol: Long-term/accelerated stability
Type: physicochemical
test-parameters: 25° C./60% RH, initial
Just the number in %, nothing appended.

Given item CCc1c(F)ccc2cc(O)cc(-c3nc4c5c(nc(OC[C@@]67CCCN6C[C@H](F)C7)nc5c3F)N3C[C@H]5CC[C@H](N5)[C@H]3CO4)c12 [Crystal form A] , the value recorded as its Purity % Initial is 99.3

Given item CCc1c(F)ccc2cc(O)cc(-c3nc4c5c(nc(OC[C@@]67CCCN6C[C@H](F)C7)nc5c3F)N3C[C@H]5CC[C@H](N5)[C@H]3CO4)c12 [Crystal form J] , the value recorded as its Purity % Initial is 99.6

Given item CCc1c(F)ccc2cc(O)cc(-c3nc4c5c(nc(OC[C@@]67CCCN6C[C@H](F)C7)nc5c3F)N3C[C@H]5CC[C@H](N5)[C@H]3CO4)c12 [Crystal form C] , the value recorded as its Purity % Initial is 99.7

* * *

protocol: Crystal form stability study (influencing factor experiments)
Format: physicochemical
test-parameters: 92.5% RH, 10 days, open container
measure: Color and state

CCc1c(F)ccc2cc(O)cc(-c3nc4c5c(nc(OC[C@@]67CCCN6C[C@H](F)C7)nc5c3F)N3C[C@H]5CC[C@H](N5)[C@H]3CO4)c12 [Crystal form A]; Off-white solid
CCc1c(F)ccc2cc(O)cc(-c3nc4c5c(nc(OC[C@@]67CCCN6C[C@H](F)C7)nc5c3F)N3C[C@H]5CC[C@H](N5)[C@H]3CO4)c12 [Crystal form I]; Off-white solid
CCc1c(F)ccc2cc(O)cc(-c3nc4c5c(nc(OC[C@@]67CCCN6C[C@H](F)C7)nc5c3F)N3C[C@H]5CC[C@H](N5)[C@H]3CO4)c12 [Crystal form B]; Off-white solid

* * *

protocol: Crystal form stability study (influencing factor experiments)
Format: physicochemical
test-parameters: 60° C., 5 days, open container
measure: Purity % (%)
Just the number in %, nothing appended.

Given item CCc1c(F)ccc2cc(O)cc(-c3nc4c5c(nc(OC[C@@]67CCCN6C[C@H](F)C7)nc5c3F)N3C[C@H]5CC[C@H](N5)[C@H]3CO4)c12 [Crystal form C] , the value recorded as its Purity % is 99.0

Given item CCc1c(F)ccc2cc(O)cc(-c3nc4c5c(nc(OC[C@@]67CCCN6C[C@H](F)C7)nc5c3F)N3C[C@H]5CC[C@H](N5)[C@H]3CO4)c12 [Crystal form J] , the value recorded as its Purity % is 99.1

Given item CCc1c(F)ccc2cc(O)cc(-c3nc4c5c(nc(OC[C@@]67CCCN6C[C@H](F)C7)nc5c3F)N3C[C@H]5CC[C@H](N5)[C@H]3CO4)c12 [Crystal form B] , the value recorded as its Purity % is 99.3

Given item CCc1c(F)ccc2cc(O)cc(-c3nc4c5c(nc(OC[C@@]67CCCN6C[C@H](F)C7)nc5c3F)N3C[C@H]5CC[C@H](N5)[C@H]3CO4)c12 [Crystal form A] , the value recorded as its Purity % is 99.1

Given item CCc1c(F)ccc2cc(O)cc(-c3nc4c5c(nc(OC[C@@]67CCCN6C[C@H](F)C7)nc5c3F)N3C[C@H]5CC[C@H](N5)[C@H]3CO4)c12 [Crystal form K] , the value recorded as its Purity % is 99.1

Given item CCc1c(F)ccc2cc(O)cc(-c3nc4c5c(nc(OC[C@@]67CCCN6C[C@H](F)C7)nc5c3F)N3C[C@H]5CC[C@H](N5)[C@H]3CO4)c12 [Crystal form I] , the value recorded as its Purity % is 99.6
